- Test system: NCI-H460 lung
Answer with one of the outcomes given here: active, inactive

Some entries whose results are on file:
CCCCOC(=O)c1ccc(N)cc1 : inactive
CC1=CC(C)=NN=C(N)N1S(=O)(=O)c1cc(C)c(Cl)cc1SCc1ccccc1 : inactive
COc1ccc(C#Cc2ccc(=O)oc2-c2cc(OC)c(OC)c(OC)c2)cc1O : inactive
CCC[CH2][Sn]([CH2]CCC)([O]c1cccc2cccnc12)[O]c1cccc2cccnc12 : active

Ask | How did this test come out for "O=C(Nc1ccc(Cc2ccccc2)cc1)Nc1nn(C(=O)Nc2ccc(Cc3ccccc3)cc2)c2ccccc12" ?
Reply | inactive

Ask | Further, for CN(CCCCCl)P(=O)(OCCS(=O)(=O)CC(NC(=O)CCC(N)C(=O)O)C(=O)NC(C(=O)O)c1ccccc1)OCC1OC(n2ccc(N)nc2=O)C(O)C1O (stereo not drawn) ?
Reply | inactive

Ask | Further, for CCN(CC)CCCC(C)Nc1ccnc2cc(Cl)ccc12 (stereo not drawn) ?
Reply | inactive

Ask | Further, for "O=C1C(Cl)=C(Nc2ccc(Nc3ccccc3)c(NC3=C(Cl)C(=O)c4ccccc4C3=O)c2)C(=O)c2ccccc21" ?
Reply | inactive
